Listed next: entries and their corresponding self-cleavage.
B1: HDV Ribozyme (parent)
chain: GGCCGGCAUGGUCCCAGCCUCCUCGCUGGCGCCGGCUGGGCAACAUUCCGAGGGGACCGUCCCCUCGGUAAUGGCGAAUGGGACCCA

Variants of: B1
Assay: self-cleavage, relative activity (ratio to wild type); higher = more cleavage; co-transcriptional
No unit in the answer, only the number.

Completed entries (count: 2):
- mutation key: "G55C G76U"
  self-cleavage: 1.06
- mutation key: "U9C G29C"
  self-cleavage: 0.138

Proceed to the following item.
Note to self: self-cleavage recorded for C4A C41A was 0.117
